- Species on record: Rattus norvegicus
- Assay procedure: DrugMatrix - Regimen: Daily Repeat
- Type: toxicity, organism-based, Sprague-Dawley
- Set-up: regimen Daily Repeat, gender Male, age 6-8 weeks
- Particulars: in vivo, po, 1500 mg/kg, 120 h, tissue Plasma, route oral GAVAGE, dose level High, time 5 day, vehicle .5 % CMC
Documented CHLORIDE across a set of compounds
All answers are understood in MEQ/L, so give the number only.

Q: What value of CHLORIDE has been reported for the following compound? CCOC(=O)[C@H](CCc1ccccc1)N[C@@H](C)C(=O)N1[C@H](C(=O)O)C[C@@H]2CCC[C@@H]21
Ans: 102

Q: What value of CHLORIDE has been reported for the following compound? COC(=O)c1ccc(O)cc1
Ans: 100.67

Q: What value of CHLORIDE has been reported for the following compound? NS(=O)(=O)c1cc2c(cc1Cl)NCNS2(=O)=O [HYDROCHLOROTHIAZIDE]
Ans: 97

Q: What value of CHLORIDE has been reported for the following compound? O=C1CCc2cc(OCCCCc3nnnn3C3CCCCC3)ccc2N1
Ans: 106.67

The origin of these recorded values is ChEMBL document CHEMBL3885881.
